src = ChEMBL document CHEMBL4622835

Assignment: determine reported MIC for the given molecules.
System: Klebsiella pneumoniae
Test: Synergistic antibacterial activity against Klebsiella pneumoniae ATCC BAA-2470 cells expressing NDM-1 incubated for 20 to 24 hrs presence of meropenem by broth dilution method (Rvb >64 ug/ml)
Type: functional

# example entries with known answers
CCC/C(=N\Nc1cccc2ccccc12)C(=O)O    32 µg/mL
C/C(=N\Nc1cccc2ccccc12)C(=O)O    > 64 µg/mL
CC(C)(C)/C(=N\Nc1cccc2cccnc12)C(=O)O.Cl    64 µg/mL
CCC/C(=N\Nc1cccc2cccnc12)C(=O)O.Cl    > 64 µg/mL
CC(C)(C)/C(=N\Nc1cccnc1)C(=O)O.Cl    > 64 µg/mL

Could I get MIC for every one of these entries?
1. C/C(=N\Nc1cccnc1)C(=O)O.Cl
2. CCC/C(=N\Nc1ccccc1)C(=O)O

Output:
["> 64 µg/mL", "> 64 µg/mL"]
